These entries and their values trace back to paper PMC10353187.

Target or system hCA I (Homo sapiens, UniProt P00915); recorded quantity Ki.
Give bare numbers, in µM.

In [3]: df
Out[3]:
                                   molecule  quantity_kind  test_result
0  NS(=O)(=O)N/C=C1/C(=O)Nc2ccccc21 [Compound 5, 3-(sulfamidmethylene)indoline-2-one]             Ki         6.35
1        O=C1Nc2ccccc2C1=CNc1ccc(C(=O)O)cc1             Ki         6.32
2  NS(=O)(=O)c1ccc(NCc2ccc(NC=C3C(=O)Nc4ccccc43)cc2)cc1 [Compound 11a]             Ki        0.321

Okay, next one:
For NS(=O)(=O)c1ccc(NC(=O)c2ccc(NC=C3C(=O)Nc4ccccc43)cc2)cc1 , what is its reported Ki?
0.332

----------
- SYSTEM: hCA XII (Homo sapiens, UniProt O43570)
- Sequence (O43570 25-354): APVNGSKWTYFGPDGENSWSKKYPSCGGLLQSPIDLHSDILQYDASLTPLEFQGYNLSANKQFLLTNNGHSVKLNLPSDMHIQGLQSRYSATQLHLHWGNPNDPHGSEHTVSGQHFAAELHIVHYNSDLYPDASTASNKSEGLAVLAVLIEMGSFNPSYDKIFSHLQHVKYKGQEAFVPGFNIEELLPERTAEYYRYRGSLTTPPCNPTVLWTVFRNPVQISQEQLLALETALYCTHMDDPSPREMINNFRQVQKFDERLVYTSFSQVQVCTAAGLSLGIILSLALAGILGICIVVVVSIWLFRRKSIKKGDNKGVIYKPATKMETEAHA
- ASSAY_EXPLANATION: Stopped flow CO2 hydrase assay
QUANTITY_KIND: Ki

>>> df
                                   molecule  quantity_kind  test_result
0  NS(=O)(=O)N/C=C1/C(=O)Nc2ccccc21 [Compound 5, 3-(sulfamidmethylene)indoline-2-one]             Ki    0.0424 µM
1  O=C1Nc2ccccc2C1=CNc1ccc(C(=O)C=CNc2ccc(S(=O)(=O)Nc3ncccn3)cc2)cc1 [Compound 13b]             Ki      > 10 µM
2  O=C1Nc2ccccc2C1=CNc1ccc(C(=O)Nc2nccs2)cc1             Ki      > 10 µM
3  O=C1Nc2ccccc2C1=CNc1ccc(CNc2ccc(S(=O)(=O)Nc3ncccn3)cc2)cc1 [Compound 11b]             Ki      8.57 µM
4   NS(=O)(=O)c1nnc(NC=C2C(=O)Nc3ccccc32)s1             Ki    0.0087 µM

Provide Ki for all items below, preserving their order.
1. NS(=O)(=O)c1ccc(NCc2ccc(NC=C3C(=O)Nc4ccccc43)cc2)cc1 [Compound 11a]
2. O=C(Nc1ccc(NC=C2C(=O)Nc3ccccc32)cc1)Nc1nccs1 [Compound 15c]
3. O=C(Nc1ccc(NC=C2C(=O)Nc3ccccc32)cc1)Nc1ccc(S(=O)(=O)Nc2ncccn2)cc1 [Compound 15b]

0.0786 µM
> 10 µM
> 10 µM

Provide Ki for all items below, preserving their order.
1. O=C1Nc2ccccc2C1=CNc1ccc(C(=O)Nc2ccc(S(=O)(=O)Nc3ncccn3)cc2)cc1
2. O=C1Nc2ccccc2C1=CNc1ccc(CNc2nccs2)cc1 [Compound 11c]

1. > 10 µM
2. > 10 µM

----------
QUANTITY_KIND: melting point

See these solved cases before continuing.
>>> print(df.to_string())
                                   compound    test_result
0        O=C1Nc2ccccc2C1=CNc1ccc(C(=O)O)cc1       > 300 °C
1  O=C(Nc1ccc(NC=C2C(=O)Nc3ccccc32)cc1)Nc1ccc(S(=O)(=O)Nc2ncccn2)cc1 [Compound 15b]       > 300 °C
2  O=C1Nc2ccccc2C1=CNc1ccc(C(=O)C=CNc2ccc(S(=O)(=O)Nc3ncccn3)cc2)cc1 [Compound 13b]  290 to 294 °C
3  O=C1Nc2ccccc2C1=CNc1ccc(C(=O)Nc2nccs2)cc1       > 300 °C
4  O=C1Nc2ccccc2C1=CNc1ccc(C(=O)Nc2ccc(S(=O)(=O)Nc3ncccn3)cc2)cc1       > 300 °C
5   NS(=O)(=O)c1nnc(NC=C2C(=O)Nc3ccccc32)s1  210 to 216 °C
6  NS(=O)(=O)OC=C1C(=O)Nc2ccccc21 [Compound 7, (2-Oxoindolin-3-ylidene)methyl sulfamate]  165 to 170 °C
7  O=C1Nc2ccccc2C1=CNc1ccc(S(=O)(=O)Nc2ncccn2)cc1  238 to 240 °C
8  O=C1Nc2ccccc2C1=CNC1=NS(=O)(=O)c2ccccc21  195 to 199 °C
9  NS(=O)(=O)c1ccc(NCc2ccc(NC=C3C(=O)Nc4ccccc43)cc2)cc1 [Compound 11a]  195 to 200 °C

Provide melting point for all items below, preserving their order.
1. O=C1Nc2ccccc2C1=CNc1ccc(C(=O)C=CNc2nccs2)cc1 [Compound 13c]
2. NS(=O)(=O)N/C=C1/C(=O)Nc2ccccc21 [Compound 5, 3-(sulfamidmethylene)indoline-2-one]
3. NS(=O)(=O)c1ccc(NC=CC(=O)c2ccc(NC=C3C(=O)Nc4ccccc43)cc2)cc1 [Compound 13a]
4. O=C1Nc2ccccc2C1=CNc1ccc(CNc2nccs2)cc1 [Compound 11c]

1: 260 to 262 °C; 2: 158 to 160 °C; 3: 275 to 278 °C; 4: 150 to 153 °C
